System: HCT-116 colon
Assay: NCI-60 one-dose screen, 48 h (100 = growth as untreated, 0 = no growth, -100 = all killed)
Conditions: 10 µM
Experimental: Growth inhibition of the HCT-116 human tumor cell line is measured as a screen for anti-cancer activity. Cells are grown in 96 well plates and exposed to the test compound for 48 hours. Compounds are tested at a single concentration, which is 10^-5 M for most compounds. The reported endpoint is percent growth (GI% or GIPRCNT), where numbers from 0 - 100% represent growth inhibition, and numbers from -100% - 0 represent cell death. For example, a value of 40 represents 60% growth inhibition. […]
This is part of a sample that, as a whole, favours compounds with a hit. Of some 83,000 tested, about 20% had one in any assay.

>  <Compound>
CCc1ccc(-c2nnc(COc3ccc(-c4nc5cc(Cl)c(Cl)cc5[nH]4)cc3OC)o2)cc1

>  <Measurement Unit>
%

>  <growth>
1.36

$$$$
>  <Compound>
COc1cc(C2C(C#N)=C(c3c[nH]c4ccccc34)Nc3nc(N)[nH]c(=O)c32)cc(OC)c1OC (stereo not drawn)

>  <Measurement Unit>
%

>  <growth>
74

$$$$
>  <Compound>
CCCCCN(CCCCC)C(C)C(O)c1ccc2cc(Cl)c3ccccc3c2c1 (stereo not drawn)

>  <Measurement Unit>
%

>  <growth>
65.7

$$$$
>  <Compound>
COc1ccc(C2=NNC(c3sc(Cl)nc3Cl)C2)cc1 (stereo not drawn)

>  <Measurement Unit>
%

>  <growth>
28

$$$$
>  <Compound>
Nc1nsc(C(=O)c2ccc(O)cc2)n1

>  <Measurement Unit>
%

>  <growth>
94.8

$$$$
>  <Compound>
COc1cc(-c2nc3ccccc3[nH]2)ccc1OCC(=O)N=Nc1c(O)[nH]c2ccccc12

>  <Measurement Unit>
%

>  <growth>
31.6

$$$$
>  <Compound>
CCN(CCCNC(=O)Cc1cc(=O)oc2cc(N(C)C)ccc12)CCNc1ccnc2cc(Cl)ccc12

>  <Measurement Unit>
%

>  <growth>
53.3

$$$$
>  <Compound>
COc1ccc(-c2oncc2-c2cc(OC)c3c(c2)OCO3)cc1

>  <Measurement Unit>
%

>  <growth>
14.1

$$$$
>  <Compound>
CC(C)C[C@H](NC(=O)Cn1ccc(Nc2ccccc2)cc1=O)B(O)O

>  <Measurement Unit>
%

>  <growth>
-6.59

$$$$
>  <Compound>
O=C(O)c1ccc(CNc2ccc(C(=O)CCl)cc2)cc1

>  <Measurement Unit>
%

>  <growth>
80.8

$$$$
>  <Compound>
COc1cc(N=C2C(=O)N(Cc3ccccc3)c3ccccc32)cc(OC)c1OC

>  <Measurement Unit>
%

>  <growth>
99.8

$$$$
>  <Compound>
C#CCn1c(-c2cccc(OCCCCl)c2)nc2c1c(=O)n(C)c(=O)n2C

>  <Measurement Unit>
%

>  <growth>
51.9

$$$$
>  <Compound>
CN(C1c2ccccc2Oc2ccccc21)S(=O)(=O)c1cc(Cl)ccc1Cl

>  <Measurement Unit>
%

>  <growth>
31.3

$$$$
>  <Compound>
O=C1/C(=C/c2ccc(O)cc2O)N=C2SCCCN12

>  <Measurement Unit>
%

>  <growth>
99.5

$$$$
>  <Compound>
C#Cc1ccc(-n2c(/C=C/c3cc(OC)c(OC)c(OC)c3)nc3ncccc3c2=O)cc1

>  <Measurement Unit>
%

>  <growth>
54.2

$$$$
>  <Compound>
N#Cc1ncc(-c2cc(F)ccc2F)c(NC2CCCCCC2)n1

>  <Measurement Unit>
%

>  <growth>
85.6

$$$$
>  <Compound>
C/C(=N/NC(=O)c1sc(=S)n(C)c1N)c1cc2cc(Cl)ccc2o1

>  <Measurement Unit>
%

>  <growth>
103

$$$$
>  <Compound>
C=CCNC(=S)NN

>  <Measurement Unit>
%

>  <growth>
6.82

$$$$
>  <Compound>
Cn1c([N+](=O)[O-])cnc1/C=C1\Oc2ccc(Br)cc2C1=O

>  <Measurement Unit>
%

>  <growth>
-27.1

$$$$
>  <Compound>
Cc1cn(C(=O)/C(Cl)=C(/Cl)C(=O)O)c2ccccc12

>  <Measurement Unit>
%

>  <growth>
105

$$$$
>  <Compound>
CCOC(=O)c1cc(-c2ccccc2)nc(N)n1

>  <Measurement Unit>
%

>  <growth>
104

$$$$
>  <Compound>
O=C1/C(=C/c2ccc([N+](=O)[O-])s2)Oc2ccc(Cl)cc21

>  <Measurement Unit>
%

>  <growth>
-52.7

$$$$
>  <Compound>
CCn1nc(-c2ccccn2)c2cccnc2c1=S

>  <Measurement Unit>
%

>  <growth>
17.1

$$$$
